molecular target: CDK6 (Homo sapiens, UniProt Q00534); assay: In vitro kinase inhibition IC50, luminescence (ADP Glo), retinoblastoma substrate; details: read-out: CDK6/D1 IC50
Sequence (Q00534 whole entry): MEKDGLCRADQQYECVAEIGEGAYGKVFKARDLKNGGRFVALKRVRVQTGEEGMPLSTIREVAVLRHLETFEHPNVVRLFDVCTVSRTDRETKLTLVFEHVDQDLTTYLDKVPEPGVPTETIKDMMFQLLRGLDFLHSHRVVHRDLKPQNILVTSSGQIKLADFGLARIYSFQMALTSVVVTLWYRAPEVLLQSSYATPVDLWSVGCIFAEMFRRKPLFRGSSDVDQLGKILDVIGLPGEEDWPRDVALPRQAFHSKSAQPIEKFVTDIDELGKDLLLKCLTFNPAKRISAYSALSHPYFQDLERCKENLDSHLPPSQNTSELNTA
Sequence (P24385 whole entry partner): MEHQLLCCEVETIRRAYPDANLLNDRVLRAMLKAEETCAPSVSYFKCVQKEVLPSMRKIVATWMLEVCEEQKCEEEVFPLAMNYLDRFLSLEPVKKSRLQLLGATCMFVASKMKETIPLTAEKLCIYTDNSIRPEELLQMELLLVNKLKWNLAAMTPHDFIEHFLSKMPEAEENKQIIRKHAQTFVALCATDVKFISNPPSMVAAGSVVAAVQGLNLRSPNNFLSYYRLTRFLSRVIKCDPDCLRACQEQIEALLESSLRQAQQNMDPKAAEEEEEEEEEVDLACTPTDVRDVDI
Readout Name: IC50

// below: answered molecules
Compound Structure String | IC50
CN(C)CCN1CCC(Nc2ncc3cc(C#N)c(=O)n(C4CCCC4)c3n2)CC1 | > 200 nM
CN1CCN(C(=O)c2cccc(Nc3ncc4cc(C#N)c(=O)n(C5CCCC5)c4n3)c2)CC1 | > 200 nM

Now look at this entry.
Incoming: Bench note: what IC50 did CN1CCC(c2ccc(Nc3ccc4cc(C#N)c(=O)n(C5CCCC5)c4n3)cc2)CC1 show?
Outgoing: > 200 nM

====

target: CDK1 (cyclin B) (Homo sapiens); construct: purchased Invitrogen Life Technologies (assay service); assay: Z'-LYTE kinase assay; type: biochemical; conditions: read-out: CDK1/B IC50
Sequence (P06493 whole entry): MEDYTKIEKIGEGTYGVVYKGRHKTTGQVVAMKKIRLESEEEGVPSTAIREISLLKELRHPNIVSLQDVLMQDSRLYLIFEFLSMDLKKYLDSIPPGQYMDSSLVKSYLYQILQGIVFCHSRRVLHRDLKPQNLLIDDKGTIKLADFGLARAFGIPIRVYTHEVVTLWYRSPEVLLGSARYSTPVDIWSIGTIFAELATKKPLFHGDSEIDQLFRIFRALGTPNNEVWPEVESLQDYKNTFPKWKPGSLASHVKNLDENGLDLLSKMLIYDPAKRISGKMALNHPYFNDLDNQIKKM
Sequence (P14635 whole entry partner): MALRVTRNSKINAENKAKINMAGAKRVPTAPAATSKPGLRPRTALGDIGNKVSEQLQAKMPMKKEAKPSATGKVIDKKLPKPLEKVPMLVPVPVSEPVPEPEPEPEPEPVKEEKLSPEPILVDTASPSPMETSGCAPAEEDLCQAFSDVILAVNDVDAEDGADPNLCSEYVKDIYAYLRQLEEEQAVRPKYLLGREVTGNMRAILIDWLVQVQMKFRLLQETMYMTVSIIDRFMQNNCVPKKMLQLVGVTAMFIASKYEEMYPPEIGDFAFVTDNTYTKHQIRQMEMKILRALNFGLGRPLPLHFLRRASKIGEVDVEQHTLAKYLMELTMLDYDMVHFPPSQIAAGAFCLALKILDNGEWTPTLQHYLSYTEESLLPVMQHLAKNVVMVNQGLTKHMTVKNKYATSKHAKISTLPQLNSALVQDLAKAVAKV
pIC50: −log10 of the molar value.
Consider the following molecules and their measured pIC50 readings.

Molecule | Readout Name | Result
N#Cc1cc2cnc(NC3CCN(S(=O)(=O)C(F)(F)F)CC3)nc2n(C2CCCC2)c1=O | pIC50 | < 5.30
CCCCCCc1ccc(S(=O)(=O)N2CCC(Nc3ncc4cc(C#N)c(=O)n(C5CCCC5)c4n3)CC2)cc1 | pIC50 | < 5.31

Incoming: Bench note: what pIC50 did N#Cc1cc2cnc(Nc3nc(C4CCNCC4)cs3)nc2n(C2CCCC2)c1=O show?
Outgoing: < 5.30

Incoming: Bench note: what pIC50 did CS(=O)(=O)N1CCC(Nc2ncc3cc(C4CC4)c(=O)n(C4CCCC4)c3n2)CC1 show?
Outgoing: < 5.44

Incoming: Bench note: what pIC50 did N#Cc1cc2cnc(Nc3ccc4c(c3)CCNC4)nc2n(C2COCC2O)c1=O (centres unmarked) show?
Outgoing: < 5.30

Incoming: Bench note: what pIC50 did N#Cc1cc2cnc(Nc3ccc4c(c3)CNCC4)nc2n(C2CCCC2)c1=O show?
Outgoing: 6.36

Incoming: Bench note: what pIC50 did CN(C)CCn1cc(Nc2ncc3cc(C#N)c(=O)n(C4CCCC4)c3n2)cn1 show?
Outgoing: < 5.47

Incoming: Bench note: what pIC50 did N#Cc1cc2ccc(Nc3ccc(N4CCNCC4)cc3)nc2n(C2CCCC2)c1=O show?
Outgoing: < 5.30

Incoming: Bench note: what pIC50 did CN1CCN(c2ccc(Nc3cc4c(cn3)cc(C#N)c(=O)n4C3CCCC3)cc2)CC1 show?
Outgoing: < 5.30

Incoming: Bench note: what pIC50 did N#Cc1cc2cnc(Nc3ccc4c(c3)CN(CCN)CC4)nc2n(C2CCCC2)c1=O show?
Outgoing: 6.10

Incoming: Bench note: what pIC50 did N#Cc1cc2cnc(NC3CCN(S(=O)(=O)C(F)F)CC3)nc2n(C2CCCC2)c1=O show?
Outgoing: < 5.30

Incoming: Bench note: what pIC50 did N#Cc1cc2cnc(Nc3ccc4c(c3)CNCC4)cc2n(C2CCCC2)c1=O show?
Outgoing: < 5.30

====

System: MCF-7-PR (palbociclib-resistant MCF-7) cells
Experiment: Cell viability in palbociclib-resistant cell line
Type: cell-based
Settings: Homo sapiens, MCF7; Table 5; palbociclib-resistant cell line maintained at about 850 nM palbociclib
Method: Cells were treated with test compounds at 7 to 9 concentrations within a desired concentration range (e.g. 1.1 nM-10 μM) on day 2 by series diluting the test compound stock solution (10 mM in DMSO) with culture medium. Treatment duration was 24 Hr for BT-549 cells and 144 Hr (with a medium change at 72 Hr) for MCF-7 and DU4475 cells. Cell viability was assessed by Cell Titer-Glo® as recommended by Promega (Cat. No.: G7572), or by resazurin assay (Sigma Aldrich, Cat. No.: R7017) post treatment. […]
Readout Name: IC50 (nM)

Compound | IC50 (nM)
N#Cc1cc2cnc(Nc3ccc4c(c3)CCNC4)nc2n(C2CCCC2)c1=O [Compound No. 31] | 248

A. CS(=O)(=O)N1CCC(Nc2ncc3cc(C#N)c(=O)n(C4CCC(F)(F)C4)c3n2)CC1 (racemic) [Compound No. 345]
B. N#Cc1cc2cnc(Nc3ccc(N4CCNCC4)c(F)c3)nc2n(C2CCCC2)c1=O [Compound No. 13]
C. CS(=O)(=O)N1CCC(Nc2ncc3cc(C#N)c(=O)n(C4CC5CC5C4)c3n2)CC1 (stereo not shown) [Compound No. 341]
Incoming: Sort the compounds on IC50; start with the lowest figure. Returns: the labels listed in the requested order.
Outgoing: B, C, A
